Attribute: NFκB activation EC50 (SEAP, OD655) in HEK293 blue CD40 NFκB reporter cells
measured target: human CD40 on cells (human, UniProt P25942 21-277)
Sequence (P25942 21-277 limits assumed): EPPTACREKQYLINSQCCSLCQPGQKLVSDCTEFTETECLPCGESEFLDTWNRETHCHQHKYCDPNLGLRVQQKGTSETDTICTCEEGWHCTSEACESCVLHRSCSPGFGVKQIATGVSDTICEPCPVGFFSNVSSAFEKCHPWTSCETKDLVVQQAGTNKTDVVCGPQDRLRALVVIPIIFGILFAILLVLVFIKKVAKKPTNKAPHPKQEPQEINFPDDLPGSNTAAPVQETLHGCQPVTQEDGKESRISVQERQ
assay method text: cell-based or functional assay
observed property: NFκB activation EC50 (SEAP, OD655) in HEK293 blue CD40 NFκB reporter cells (µg/mL)

binder="Humanized muAb6 #1 (antibody, V domains shown) VH: EVQLVQSGAEVKKPGSSVKVSCKASGYTFTSYWMHWVRQAPGQGLEWIGNIDPSNGETHYNQKFKDRATLTVDKSTSTAYMELSSLRSEDTAVYYCARERIYYSGSTYDGYFDVWGQGTTVTVSS VL: DIQLTQSPSFLSASVGDRVTITCSASSSLSYMHWYQQKPGKSPKRWIYDTSKLASGVPSRFSGSGSGTEYTLTISSLQPEDFATYYCQQWSSNPWTFGGGTKVEIK" unit_annotation=µg/mL numeric_result=1.09
binder="Humanized muAb9 #3 (antibody, V domains shown) VH: EVQLQESGPGLVKPSETLSLTCTVSGYSISSNYYWNWIRQPPGKGLEWMGYIRYDGSNNYNPSLKSRVTISRDTSKNQFSLKLSSVTAADTAVYYCARLDYWGQGTTVTVSS VL: DAVMTQTPLSLSVTPGQPASISCRSSQSLENTNGNTFLNWFLQKPGQSPQLLIYRVSNRFSGVPDRFSGSGSGTDFTLKISRVEAEDVGVYFCLQVTHVPFTFGQGTKLEIK" unit_annotation=µg/mL numeric_result=0.18
binder="Humanized muAb8 #3 (antibody, V domains shown, human IgG1 constant region (natural variants D356E and L358M) and kappa light chain; also called huAb8-3) VH: EVQLVQSGAEVKKPGSSVKVSCKASGYTFTDYYINWVRQAPGQGLEWIGWIFPGSGSVYCNEQFKGRVTITVDKSTSTAYMELSSLRSEDTAVYYCASSLGKFAYWGQGTLVTVSS VL: DIQMTQSPSSLSASVGDRVTITCKASQSVVTAVAWYQQKPGKSPKLLIYSASNRYTGVPSRFSGSGSGTDFTLTISSLQPEDFATYFCQQYSSYPYTFGGGTKVEIK" unit_annotation=µg/mL numeric_result=0.07
binder="Humanized muAb8 #1 (antibody, V domains shown, human IgG1 constant region (natural variants D356E and L358M) and kappa light chain; also called huAb8-1) VH: EVQLVQSGAEVKKPGSSVKVSCKASGYTFTDYYINWVRQAPGQGLEWIGWIFPGSGSVYCNEQFKGRATLTVDRSTSTAYMELSSLRSEDTAVYFCASSLGKFAYWGQGTLVTVSS VL: DIQMTQSPSSLSASVGDRVTITCKASQSVVTAVAWYQQKPGKSPKLLIYSASNRYTGVPSRFSGSGSGTDFTLTISSLQPEDFATYFCQQYSSYPYTFGGGTKVEIK" unit_annotation=µg/mL numeric_result=0.14
binder="Humanized muAb6 #3 (antibody, V domains shown) VH: EVQLVQSGAEVKKPGSSVKVSCKASGYTFTSYWMHWVRQAPGQGLEWIGNIDPSNGETHYAQKFQGRVTITVDKSTSTAYMELSSLRSEDTAVYYCARERIYYSGSTYDGYFDVWGQGTTVTVSS VL: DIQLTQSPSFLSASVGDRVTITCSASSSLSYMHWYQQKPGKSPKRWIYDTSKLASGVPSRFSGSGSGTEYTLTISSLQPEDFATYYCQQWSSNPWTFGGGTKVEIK" unit_annotation=µg/mL numeric_result=4.31
